Study Target: Nanoluciferase-BRD9 fusion protein (3×FLAG-NLuc-BRD9) in SYO-1 cells (Homo sapiens)
Construct: expressed in transfected cells; host or cells: SYO-1
Sequence (Q9H8M2 whole entry, the tested form may be a part): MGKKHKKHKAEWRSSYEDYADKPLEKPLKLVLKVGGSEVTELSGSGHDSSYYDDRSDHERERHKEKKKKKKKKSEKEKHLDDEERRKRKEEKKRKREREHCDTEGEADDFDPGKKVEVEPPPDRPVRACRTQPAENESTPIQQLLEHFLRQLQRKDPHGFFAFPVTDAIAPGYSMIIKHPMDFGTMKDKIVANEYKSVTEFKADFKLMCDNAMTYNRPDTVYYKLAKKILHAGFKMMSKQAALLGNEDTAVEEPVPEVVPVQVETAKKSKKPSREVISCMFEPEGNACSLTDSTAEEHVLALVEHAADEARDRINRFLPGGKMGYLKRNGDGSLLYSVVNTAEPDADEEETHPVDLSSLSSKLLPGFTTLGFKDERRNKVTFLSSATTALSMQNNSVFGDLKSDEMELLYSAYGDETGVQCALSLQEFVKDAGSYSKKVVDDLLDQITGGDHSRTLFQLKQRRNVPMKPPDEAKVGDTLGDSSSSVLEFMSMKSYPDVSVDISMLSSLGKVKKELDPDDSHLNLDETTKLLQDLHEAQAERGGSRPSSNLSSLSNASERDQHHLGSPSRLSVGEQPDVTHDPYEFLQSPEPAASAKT
Assay Notes: SYO1 BRD9 NanoLuc degradation assay
Assay type: cell-based
Assay Setup: Table 6B; SYO-1 cells expressing 3×FLAG-NLuc-BRD9, 6 hours incubation, 1 μM top dose; read-out: SYO1 BRD9-NanoLuc degradation IC50
DC50 values for the compounds below.

| Compound | Study Target | DC50 |
| --- | --- | --- |
| COc1cc(-c2cn(C)c(=O)c3cc(C(=O)NC4CCN(CCCCCOc5cccc6c5C(=O)N(C5CCC(=O)NC5=O)C6=O)CC4(F)F)sc23)cc(OC)c1CN(C)C (centres unmarked) [Compound D16] | Nanoluciferase-BRD9 fusion protein (3×FLAG-NLuc-BRD9) in SYO-1 cells (Homo sapiens) | < 0.01 µM |
| COc1cc(-c2cn(C)c(=O)c3cc(C(=O)NC4CC5(CCN(CCN6CCN(c7ccc8c(c7)C(=O)N(C7CCC(=O)NC7=O)C8=O)CC6)CC5)C4)sc23)cc(OC)c1CN(C)C (centres unmarked) [Compound D41] | Nanoluciferase-BRD9 fusion protein (3×FLAG-NLuc-BRD9) in SYO-1 cells (Homo sapiens) | < 0.01 µM |
| COc1cc(-c2cn(C)c(=O)c3cc(C(=O)NC4CC5(CCN(CCCN6CCN(c7ccc8c(c7)C(=O)N(C7CCC(=O)NC7=O)C8=O)CC6)C5)C4)sc23)cc(OC)c1CN(C)C (centres unmarked) [Compound D73] | Nanoluciferase-BRD9 fusion protein (3×FLAG-NLuc-BRD9) in SYO-1 cells (Homo sapiens) | < 0.01 µM |
| COc1cc(-c2cn(C)c(=O)c3cc(C(=O)NCC4CC45CCN(CCN4CCN(c6ccc7c(c6)C(=O)N(C6CCC(=O)NC6=O)C7=O)CC4)CC5)sc23)cc(OC)c1CN(C)C (centres unmarked) [Compound D57] | Nanoluciferase-BRD9 fusion protein (3×FLAG-NLuc-BRD9) in SYO-1 cells (Homo sapiens) | < 0.01 µM |
| COc1cc(-c2cn(C)c(=O)c3cc(NC(=O)C4CCN(CCCCCOc5cccc6c5C(=O)N(C5CCC(=O)NC5=O)C6=O)CC4(F)F)sc23)cc(OC)c1CN(C)C (centres unmarked) [Compound D59] | Nanoluciferase-BRD9 fusion protein (3×FLAG-NLuc-BRD9) in SYO-1 cells (Homo sapiens) | > 0.01 µM |
| COc1cc(-c2cn(C)c(=O)c3cc(C(=O)NC4CCN(CCN5CCN(c6ccc7c(c6)C(=O)N(C6CCC(=O)NC6=O)C7=O)CC5)CC4(F)F)sc23)cc(OC)c1CN(C)C (centres unmarked) [Compound D79] | Nanoluciferase-BRD9 fusion protein (3×FLAG-NLuc-BRD9) in SYO-1 cells (Homo sapiens) | < 0.01 µM |
| COc1cc(-c2cn(C)c(=O)c3cc(C(=O)NCC4CC5(CCN(C(=O)CCN6CCN(c7ccc8c(c7)C(=O)N(C7CCC(=O)NC7=O)C8=O)CC6)CC5)C4)sc23)cc(OC)c1CN(C)C (centres unmarked) [Compound D35] | Nanoluciferase-BRD9 fusion protein (3×FLAG-NLuc-BRD9) in SYO-1 cells (Homo sapiens) | < 0.01 µM |
| COc1cc(-c2cn(C)c(=O)c3cc(C(=O)NCC4CC5CN(CCN6CCN(c7ccc8c(c7)C(=O)N(C7CCC(=O)NC7=O)C8=O)CC6)CC5C4)sc23)cc(OC)c1CN(C)C (centres unmarked) [Compound D43] | Nanoluciferase-BRD9 fusion protein (3×FLAG-NLuc-BRD9) in SYO-1 cells (Homo sapiens) | < 0.01 µM |
| COc1cc(-c2cn(C)c(=O)c3cc(C(=O)NC4CC5(CCN(C(=O)CCN6CCN(c7ccc8c(c7)C(=O)N(C7CCC(=O)NC7=O)C8=O)CC6)CC5)C4)sc23)cc(OC)c1CN(C)C (centres unmarked) [Compound D40] | Nanoluciferase-BRD9 fusion protein (3×FLAG-NLuc-BRD9) in SYO-1 cells (Homo sapiens) | < 0.01 µM |
| Cn1cc(-c2cccc(C(F)(F)F)c2)c2sc(C(=N)NC3CCS(=O)(=O)N(CC(=O)NCCCCCCCCNc4cccc5c4C(=O)N(C4CCC(=O)NC4=O)C5=O)C3)cc2c1=O (centres unmarked) [Compound D31] | Nanoluciferase-BRD9 fusion protein (3×FLAG-NLuc-BRD9) in SYO-1 cells (Homo sapiens) | > 0.01 µM |
| COc1cc(-c2cn(C)c(=O)c3cc(C(=O)NC4CC5CC4CN5CCN4CCN(c5ccc6c(c5)C(=O)N(C5CCC(=O)NC5=O)C6=O)CC4)sc23)cc(OC)c1CN(C)C (centres unmarked) [Compound D70] | Nanoluciferase-BRD9 fusion protein (3×FLAG-NLuc-BRD9) in SYO-1 cells (Homo sapiens) | < 0.01 µM |
| COc1cc(-c2cn(C)c(=O)c3cc(C(=O)NC4CCC5CN(C(=O)CCN6CCN(c7ccc8c(c7)C(=O)N(C7CCC(=O)NC7=O)C8=O)CC6)CC54)sc23)cc(OC)c1CN(C)C (centres unmarked) [Compound D58] | Nanoluciferase-BRD9 fusion protein (3×FLAG-NLuc-BRD9) in SYO-1 cells (Homo sapiens) | > 0.01 µM |
| COc1cc(-c2cn(C)c(=O)c3cc(C(=O)NC4CCN(C)CC4(F)F)sc23)cc(OC)c1CN(C)CC(=O)NCCOCCOc1cccc2c1C(=O)N(C1CCC(=O)NC1=O)C2=O (centres unmarked) [Compound D30] | Nanoluciferase-BRD9 fusion protein (3×FLAG-NLuc-BRD9) in SYO-1 cells (Homo sapiens) | > 0.01 µM |
| COc1cc(-c2cn(C)c(=O)c3cc(C(=O)NCC4CC5(CCN(CCN6CCN(c7ccc8c(c7)C(=O)N(C7CCC(=O)NC7=O)C8=O)CC6)CC5)O4)sc23)cc(OC)c1CN(C)C (centres unmarked) [Compound D62] | Nanoluciferase-BRD9 fusion protein (3×FLAG-NLuc-BRD9) in SYO-1 cells (Homo sapiens) | > 0.01 µM |

These data points were gathered from patent US12686687B2.
